# Assay protocol: Solubility of copanlisib dihydrochloride, flask method, HPLC
# Assay type: physicochemical
# Experimental context: 25 °C, aqueous buffer, thermodynamic from solid; Buffer (phosphate) pH 2
Reported metric: solubility at 19 h (mg/mL)
Kindly provide the numeric value in mg/mL only, without the unit symbol.

// solubility at 19 h lookup, key: COc1c(OCCCN2CCOCC2)ccc2c1N=C(NC(=O)c1cnc(N)nc1)N1CCN=C21.Cl.Cl [copanlisib dihydrochloride]
250

* * *

# Assay protocol: Solubility of copanlisib dihydrochloride, flask method, HPLC
# Format: physicochemical
# Experimental context: water, 25 °C, thermodynamic from solid
Reported metric: solubility at 19 h (mg/mL)
Kindly provide the numeric value in mg/mL only, without the unit symbol.

// solubility at 19 h lookup, key: COc1c(OCCCN2CCOCC2)ccc2c1N=C(NC(=O)c1cnc(N)nc1)N1CCN=C21.Cl.Cl [copanlisib dihydrochloride]
230

* * *

# Assay protocol: Solubility of copanlisib dihydrochloride, flask method, HPLC
# Type: physicochemical
# Experimental context: 0.1 M hydrochloric acid, 25 °C, simulated gastric fluid, thermodynamic from solid
Reported metric: solubility at 19 h (mg/mL)
Kindly provide the numeric value in mg/mL only, without the unit symbol.

// solubility at 19 h lookup, key: COc1c(OCCCN2CCOCC2)ccc2c1N=C(NC(=O)c1cnc(N)nc1)N1CCN=C21.Cl.Cl [copanlisib dihydrochloride]
190

* * *

# Assay protocol: Solubility of copanlisib dihydrochloride, flask method, HPLC
# Assay type: physicochemical
# Experimental context: 25 °C, aqueous buffer, thermodynamic from solid; Buffer (citrate) pH 5
Reported metric: solubility at 19 h
Be sure to follow the number with its unit.

// solubility at 19 h lookup, key: COc1c(OCCCN2CCOCC2)ccc2c1N=C(NC(=O)c1cnc(N)nc1)N1CCN=C21.Cl.Cl [copanlisib dihydrochloride]
620 µg/mL

* * *

# Assay protocol: Solubility of copanlisib dihydrochloride, flask method, HPLC
# Assay type: physicochemical
# Experimental context: 25 °C, aqueous buffer, thermodynamic from solid; Buffer (phosphate) pH 6
# Excerpt: The suspension was centrifuged before HPLC analysis.
Reported metric: solubility at 19 h
Be sure to follow the number with its unit.

// solubility at 19 h lookup, key: COc1c(OCCCN2CCOCC2)ccc2c1N=C(NC(=O)c1cnc(N)nc1)N1CCN=C21.Cl.Cl [copanlisib dihydrochloride]
1 µg/mL

Each recorded value in this set is attributed to patent EP3498266A1.
